This collection of values is drawn from paper PMC11566621.

Target: KLF4 (Kruppel-Like Factor 4) (Homo sapiens)
Sequence (O43474 whole entry): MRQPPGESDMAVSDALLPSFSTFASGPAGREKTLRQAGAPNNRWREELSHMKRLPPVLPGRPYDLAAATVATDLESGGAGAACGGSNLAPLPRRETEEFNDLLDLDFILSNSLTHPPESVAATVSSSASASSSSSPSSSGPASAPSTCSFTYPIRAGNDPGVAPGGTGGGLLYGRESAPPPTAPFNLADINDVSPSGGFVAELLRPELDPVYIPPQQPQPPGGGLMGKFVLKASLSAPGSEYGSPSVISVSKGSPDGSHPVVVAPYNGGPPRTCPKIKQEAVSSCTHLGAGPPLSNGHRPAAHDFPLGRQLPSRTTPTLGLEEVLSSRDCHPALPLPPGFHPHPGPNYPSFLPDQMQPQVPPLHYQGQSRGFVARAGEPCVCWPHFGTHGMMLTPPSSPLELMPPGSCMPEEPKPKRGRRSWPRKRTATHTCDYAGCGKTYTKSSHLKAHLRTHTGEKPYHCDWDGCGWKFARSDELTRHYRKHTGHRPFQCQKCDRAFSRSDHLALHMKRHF
OBSERVABLE: Kd (µM)
Write the number in µM without appending the unit.

For C[C@@H]1O[C@@H](O[C@H]2C(=O)c3c(O)cc(O)cc3O[C@@H]2c2ccc(O)c(O)c2)[C@H](O)[C@H](O)[C@H]1O the molecule record lists Kd as 48.9
